target: UniProtKB P04746; assay: Anti-α-amylase activity (starch/DNS); settings: at 100 µM

>  <molecule>
O=c1cc(-c2ccccc2)oc2cc(O)ccc12 [Molecule M5, 7-hydroxyflavone]

>  <unit of measurement>
%

>  <Anti α-Amylase %>
90.3

$$$$
>  <molecule>
COc1cc(O)c2c(=O)cc(-c3ccc(O)cc3)oc2c1 [Molecule M12, 4′,5-dihydroxy-7-methoxyflavone]

>  <unit of measurement>
%

>  <Anti α-Amylase %>
111.7

$$$$
>  <molecule>
O=c1cc(-c2ccccc2)oc2cc(O)cc(O)c12 [Molecule M1, 5,7-dihydroxyflavone]

>  <unit of measurement>
%

>  <Anti α-Amylase %>
59.7

$$$$
>  <molecule>
CC1OC(OCC2OC(Oc3c(-c4ccc(OCCO)c(OCCO)c4)oc4cc(OCCO)cc(O)c4c3=O)C(O)C(O)C2O)C(O)C(O)C1O (stereo not shown) [Molecule M6, trihydroxyethylrutin]

>  <unit of measurement>
%

>  <Anti α-Amylase %>
49.4

$$$$
>  <molecule>
O=c1cc(-c2ccccc2)oc2cccc(O)c12 [Molecule M4, 5-hydroxyflavone]

>  <unit of measurement>
%

>  <Anti α-Amylase %>
58.4

$$$$
>  <molecule>
COc1ccc(-c2oc3c(CC=C(C)C)c(O[C@@H]4O[C@H](CO)[C@@H](O)[C@H](O)[C@H]4O)cc(O)c3c(=O)c2O[C@@H]2O[C@@H](C)[C@H](O)[C@@H](O)[C@H]2O)cc1

>  <unit of measurement>
%

>  <Anti α-Amylase %>
58.1

$$$$
>  <molecule>
O=c1cc(-c2ccccc2)oc2cc(O)c(O)c(O)c12 [Molecule M7, 5,6,7-trihydroxyflavone]

>  <unit of measurement>
%

>  <Anti α-Amylase %>
96.9

$$$$

###

target: 15-lipoxygenase (Glycine max, UniProt P08170); experiment: Anti-inflammatory activity (anti 15-lipoxygenase); type: biochemical; details: at 100 µM
Sequence (P08170 whole entry): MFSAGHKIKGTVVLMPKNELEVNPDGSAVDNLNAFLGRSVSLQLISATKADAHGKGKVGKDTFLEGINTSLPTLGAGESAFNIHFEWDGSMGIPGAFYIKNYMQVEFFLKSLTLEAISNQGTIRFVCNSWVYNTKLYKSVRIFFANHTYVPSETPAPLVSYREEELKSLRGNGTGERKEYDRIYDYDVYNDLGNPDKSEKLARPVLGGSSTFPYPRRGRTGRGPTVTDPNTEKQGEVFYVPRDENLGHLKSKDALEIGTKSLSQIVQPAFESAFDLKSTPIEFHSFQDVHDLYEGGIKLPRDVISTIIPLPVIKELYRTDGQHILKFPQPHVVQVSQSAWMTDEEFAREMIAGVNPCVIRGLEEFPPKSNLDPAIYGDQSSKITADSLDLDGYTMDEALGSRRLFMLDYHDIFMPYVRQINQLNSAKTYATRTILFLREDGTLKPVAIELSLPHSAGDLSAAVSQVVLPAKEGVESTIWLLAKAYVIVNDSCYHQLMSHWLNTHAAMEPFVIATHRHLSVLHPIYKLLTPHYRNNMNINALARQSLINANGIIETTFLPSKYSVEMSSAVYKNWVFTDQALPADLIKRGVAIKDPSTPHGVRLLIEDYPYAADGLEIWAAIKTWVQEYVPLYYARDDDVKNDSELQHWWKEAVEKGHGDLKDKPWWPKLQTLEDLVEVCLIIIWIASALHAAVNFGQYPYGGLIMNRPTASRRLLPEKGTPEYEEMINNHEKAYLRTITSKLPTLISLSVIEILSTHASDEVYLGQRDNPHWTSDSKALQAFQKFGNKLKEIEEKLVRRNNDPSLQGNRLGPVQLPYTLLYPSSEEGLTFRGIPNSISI
quantity measured: Anti 15-Lipoxygenase %

>  <compound>
O=c1cc(-c2ccccc2)oc2ccc(O)cc12 [Molecule M3, 6-hydroxyflavone]

>  <target under test>
15-lipoxygenase (Glycine max, UniProt P08170)

>  <result>
ineffective

$$$$
>  <compound>
O=c1cc(-c2ccccc2)oc2cccc(O)c12 [Molecule M4, 5-hydroxyflavone]

>  <target under test>
15-lipoxygenase (Glycine max, UniProt P08170)

>  <result>
ineffective

$$$$
>  <compound>
O=c1cc(-c2ccccc2)oc2cc(O)ccc12 [Molecule M5, 7-hydroxyflavone]

>  <target under test>
15-lipoxygenase (Glycine max, UniProt P08170)

>  <result>
ineffective

$$$$
>  <compound>
O=c1cc(-c2ccccc2)oc2cc(O)cc(O)c12 [Molecule M1, 5,7-dihydroxyflavone]

>  <target under test>
15-lipoxygenase (Glycine max, UniProt P08170)

>  <result>
ineffective

$$$$

###

target: α-amylase (Homo sapiens); test: Anti-α-amylase activity (starch/DNS)
Sequence (P04746 16-511): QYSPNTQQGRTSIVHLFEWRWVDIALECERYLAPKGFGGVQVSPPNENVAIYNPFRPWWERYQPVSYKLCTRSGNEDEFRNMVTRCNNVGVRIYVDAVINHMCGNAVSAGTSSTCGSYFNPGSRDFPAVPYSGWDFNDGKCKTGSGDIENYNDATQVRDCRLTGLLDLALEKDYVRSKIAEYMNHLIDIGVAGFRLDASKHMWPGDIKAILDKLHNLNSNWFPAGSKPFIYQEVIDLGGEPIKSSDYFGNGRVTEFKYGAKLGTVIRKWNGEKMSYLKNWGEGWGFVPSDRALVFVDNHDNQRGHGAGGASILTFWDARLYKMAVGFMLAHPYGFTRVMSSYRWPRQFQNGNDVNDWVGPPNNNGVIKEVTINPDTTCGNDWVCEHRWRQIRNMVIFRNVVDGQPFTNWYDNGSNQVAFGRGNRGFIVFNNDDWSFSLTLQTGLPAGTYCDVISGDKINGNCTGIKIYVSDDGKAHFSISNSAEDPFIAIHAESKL
pIC50: −log10 of the molar value.
quantity measured: pIC50

>  <molecule>
O=c1cc(-c2ccccc2)oc2cc(O)c(O)c(O)c12 [Molecule M7, 5,6,7-trihydroxyflavone]

>  <number>
5.47

$$$$
>  <molecule>
O=c1cc(-c2cccc(O)c2)oc2ccc3ccccc3c12 [Molecule M9, 3′-hydroxy-b-naphthoflavone]

>  <number>
5.70

$$$$
>  <molecule>
O=c1cc(-c2cccc(O)c2)oc2c1ccc1ccccc12 [Molecule M10, 3′-hydroxy-a-naphthoflavone]

>  <number>
5.64

$$$$
>  <molecule>
O=c1cc(-c2ccccc2)oc2ccc(O)cc12 [Molecule M3, 6-hydroxyflavone]

>  <number>
4.96

$$$$
>  <molecule>
O=c1cc(-c2cccc(O)c2)oc2cc(O)ccc12 [Molecule M13, 7,3′-dihydroxyflavone]

>  <number>
5.85

$$$$
>  <molecule>
COc1cccc(-c2cc(=O)c3c(O)cccc3o2)c1 [Molecule M11, 5-hydroxy-3′-methoxyflavone]

>  <number>
5.08

$$$$
>  <molecule>
O=c1cc(-c2ccccc2)oc2cc(O)ccc12 [Molecule M5, 7-hydroxyflavone]

>  <number>
5.92

$$$$
>  <molecule>
COc1cc(O)c2c(=O)cc(-c3ccc(O)cc3)oc2c1 [Molecule M12, 4′,5-dihydroxy-7-methoxyflavone]

>  <number>
5.05

$$$$
